# TARGET_SYSTEM: Glc(b1-4)Glc
# RUN_DESCRIPTION: glycan array binding signal (z-score within array); higher = stronger binding
# TEST_SETTINGS: glycan notation: IUPAC condensed, linker removed
The entries come from a sample that favours the strongest signals as a whole.

| BINDER | glycan array binding signal (z-score) |
| --- | --- |
| HPA (Helix pomatia), Q575S3 (protein) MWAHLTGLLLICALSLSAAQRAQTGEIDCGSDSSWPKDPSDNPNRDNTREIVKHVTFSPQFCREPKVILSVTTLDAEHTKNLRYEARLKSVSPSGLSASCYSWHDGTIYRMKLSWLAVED | -0.26 |
| SP16663B-bot-321-25-321 (Bacteroides ovatus) (protein) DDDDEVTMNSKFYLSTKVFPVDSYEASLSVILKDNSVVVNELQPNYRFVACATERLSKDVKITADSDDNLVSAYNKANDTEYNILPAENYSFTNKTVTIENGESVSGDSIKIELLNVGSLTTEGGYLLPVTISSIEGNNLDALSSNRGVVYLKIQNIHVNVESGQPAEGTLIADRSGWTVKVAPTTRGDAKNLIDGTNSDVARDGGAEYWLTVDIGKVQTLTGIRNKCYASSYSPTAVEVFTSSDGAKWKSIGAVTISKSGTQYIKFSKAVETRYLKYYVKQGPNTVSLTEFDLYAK | 0.122 |
| Ficolin A (Rattus norvegicus), Q9WTS8 (protein) MWWPMLWAFPVLLCLCSSQALGQESGACPDVKIVGLGAQDKVAVIQSCPSFPGPPGPKGEPGSPAGRGERGLQGSPGKMGPPGSKGEPGTMGPPGVKGEKGERGTASPLGQKELGDALCRRGPRSCKDLLTRGIFLTGWYTIYLPDCRPLTVLCDMDVDGGGWTVFQRRVDGSINFYRDWDSYKRGFGNLGTEFWLGNDYLHLLTANGNQELRVDLREFQGQTSFAKYSSFQVSGEQEKYKLTLGQFLEGTAGDSLTKHNNMAFSTHDQDNDTNGGKNCAALFHGAWWYHDCHQSNLNGRYLPGSHESYADGINWLSGRGHRYSYKVAEMKIRAS | -0.11 |
| SalT (Orysata sativa) (protein) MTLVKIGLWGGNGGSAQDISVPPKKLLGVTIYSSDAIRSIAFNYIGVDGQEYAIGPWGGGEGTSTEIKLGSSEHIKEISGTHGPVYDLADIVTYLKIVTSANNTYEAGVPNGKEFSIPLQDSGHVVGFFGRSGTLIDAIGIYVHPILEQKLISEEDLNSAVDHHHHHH | -0.309 |
| CCL1 (Coprinopsis cinerea) (protein) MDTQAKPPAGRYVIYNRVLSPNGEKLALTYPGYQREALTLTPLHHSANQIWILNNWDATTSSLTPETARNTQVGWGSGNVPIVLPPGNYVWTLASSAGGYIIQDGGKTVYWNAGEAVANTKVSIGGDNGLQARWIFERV | -0.115 |
| MpAFP NterminalRI GFP (Marinomonas primoryensis) (protein) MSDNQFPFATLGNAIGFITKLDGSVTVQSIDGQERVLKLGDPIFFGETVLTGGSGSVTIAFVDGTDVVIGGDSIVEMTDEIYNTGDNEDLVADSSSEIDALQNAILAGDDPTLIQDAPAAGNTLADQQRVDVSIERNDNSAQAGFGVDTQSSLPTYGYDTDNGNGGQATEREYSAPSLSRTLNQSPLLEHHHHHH | 0.784 |
| LlpA1 (Pseudomonas fluorescens), Q4KHC3 (protein) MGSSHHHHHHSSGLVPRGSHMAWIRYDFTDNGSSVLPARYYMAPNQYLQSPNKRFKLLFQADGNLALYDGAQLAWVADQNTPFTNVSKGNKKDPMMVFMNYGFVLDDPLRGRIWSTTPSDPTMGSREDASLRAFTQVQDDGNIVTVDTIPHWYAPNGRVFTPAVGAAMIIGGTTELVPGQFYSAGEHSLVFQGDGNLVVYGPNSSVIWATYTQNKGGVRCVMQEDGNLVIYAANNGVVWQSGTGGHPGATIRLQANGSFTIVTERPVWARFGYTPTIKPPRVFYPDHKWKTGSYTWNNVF | -1.02 |

These data points were gathered from the supplement of paper PMC8728848.
